Tested on: RARa:RXR (NR concentration 270 nM, RXRa partner concentration 90 nM)
Assay: PBM binding z-score (relative to random genomic background probes); higher = stronger binding; sequences stand for … in GC…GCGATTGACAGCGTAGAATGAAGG
measure_name: PBM binding z-score
No unit in the answer, please; the number alone is enough.

residue_sequence=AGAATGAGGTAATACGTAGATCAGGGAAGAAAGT val=0.431
residue_sequence=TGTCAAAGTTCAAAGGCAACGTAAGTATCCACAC val=3.97

Looking for the measured PBM binding z-score of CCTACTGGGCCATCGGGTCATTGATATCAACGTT , can you help?
2.47

Entry to check: TCGCGGAGGACACGAAGGTCAGAGCTTTCCAGAG
1.74

Entry to check: TCTCGGAGGACACGAAGGTCAGAGGTTTCCAGAG
2.75
